tested on: Endothelin-1 receptor (Sus scrofa, UniProt Q29010)
Sequence (Q29010 whole entry): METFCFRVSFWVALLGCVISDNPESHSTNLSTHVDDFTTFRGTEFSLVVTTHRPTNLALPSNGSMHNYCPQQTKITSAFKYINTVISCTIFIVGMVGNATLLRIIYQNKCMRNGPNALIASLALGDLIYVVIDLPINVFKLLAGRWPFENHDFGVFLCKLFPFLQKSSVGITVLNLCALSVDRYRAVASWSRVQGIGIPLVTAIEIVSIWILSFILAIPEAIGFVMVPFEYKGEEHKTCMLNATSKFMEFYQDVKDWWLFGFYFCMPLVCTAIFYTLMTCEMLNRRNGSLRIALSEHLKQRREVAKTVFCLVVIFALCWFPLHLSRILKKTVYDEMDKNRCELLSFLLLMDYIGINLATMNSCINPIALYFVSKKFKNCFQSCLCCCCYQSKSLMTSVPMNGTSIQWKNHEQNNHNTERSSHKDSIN
assay remarks: In vitro inhibition of [125 I]ET-1 binding to Endothelin A receptor in porcine aortic membrane.
measurement type: IC50 (nM)

1: Cc1ccc(-c2c(NS(=O)(=O)c3ccc(C(C)(C)C)cc3)nc(-c3ccccn3)nc2OCCOc2ncc(Br)cn2)cc1
2: COc1ccccc1Oc1c(NS(=O)(=O)c2ccc(C(C)(C)C)cc2)nc(C)nc1OCCOc1ncc(Br)cn1
Query: Which numeric IC50 is bigger, that of 1 or that of 2 ? // return label of chosen record
Reply: 2

###

# key: entry, value: pIC50
tested on: UniProt:P21451
Sequence (P21451 whole entry): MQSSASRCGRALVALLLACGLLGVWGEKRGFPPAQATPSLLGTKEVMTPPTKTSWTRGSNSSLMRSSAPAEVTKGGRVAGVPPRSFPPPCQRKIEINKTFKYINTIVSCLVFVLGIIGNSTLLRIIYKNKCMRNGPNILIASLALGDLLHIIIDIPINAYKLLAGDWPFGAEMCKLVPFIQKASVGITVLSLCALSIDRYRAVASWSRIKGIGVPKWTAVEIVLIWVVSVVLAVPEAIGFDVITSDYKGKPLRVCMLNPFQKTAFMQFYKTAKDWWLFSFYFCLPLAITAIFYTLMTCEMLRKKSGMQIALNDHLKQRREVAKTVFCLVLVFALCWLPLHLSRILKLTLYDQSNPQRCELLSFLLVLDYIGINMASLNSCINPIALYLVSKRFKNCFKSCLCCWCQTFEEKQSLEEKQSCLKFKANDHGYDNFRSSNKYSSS
assay remarks: In vitro inhibition of [125 I]ET-1 binding to Endothelin B receptor (ETB-receptor) in rat cerebellum membranes
pIC50: −log10 of the molar value.

Check out these entries, answers already filled in.
COc1ccccc1Oc1c(NS(=O)(=O)c2ccc(C(C)(C)C)cc2)nc(NCCO)nc1OCCOc1ncc(Br)cn1 :: < 9.00
COc1ccccc1Oc1c(NS(=O)(=O)c2ccc(C(C)(C)C)cc2)ncnc1OCCOc1ncc(Br)cn1 :: < 9.00

Query: // returns reported pIC50 for input COc1ccccc1Oc1c(NS(=O)(=O)c2ccc(C(C)(C)C)cc2)nc(N2CCC(O)CC2)nc1OCCOc1ncc(Br)cn1
Reply: < 9.00

###

tested on: Endothelin-1 receptor (Sus scrofa)
assay remarks: In vitro inhibition of [125 I]ET-1 binding to Endothelin A receptor in porcine aortic membrane.
pIC50: −log10 of the molar value.
measurement type: pIC50

Check out these entries, answers already filled in.
Cc1ccc(-c2c(NS(=O)(=O)c3ccc(C(C)(C)C)cc3)nc(C(C)C)nc2OCCOc2ncc(Br)cn2)cc1 :: 8.96
COc1ccccc1Oc1c(NS(=O)(=O)c2ccc(C(C)(C)C)cc2)nc(SCCC(=O)O)nc1OCCOc1ncc(Br)cn1 :: 8.00

1: COc1ccccc1Oc1c(NS(=O)(=O)c2ccc(C(C)(C)C)cc2)nc(N2CCN(C)CC2)nc1OCCOc1ncc(Br)cn1
2: CCCc1nc(NS(=O)(=O)c2ccc(C(C)(C)C)cc2)c(-c2ccc(C)cc2)c(OCCOc2ncc(Br)cn2)n1
Query: // pick min by pIC50: 1 , 2 // return label of chosen record
Reply: 2
(2: 8.80, 1: 9.35)

###

assay remarks: Water solubility at pH 7.5
Format: physicochemical
measurement type: solubility (µg/mL)
Give a bare numeral; the unit µg/mL is implied.

Query: // returns reported solubility for input Cc1ccc(-c2c(NS(=O)(=O)c3ccc(C(C)(C)C)cc3)ncnc2OCCOc2ncc(Br)cn2)cc1
Reply: 1.6

###

tested on: UniProt Q29010
assay remarks: In vitro inhibition of [125 I]ET-1 binding to Endothelin A receptor in porcine aortic membrane.
measurement type: IC50 (nM)

CCCc1nc(NS(=O)(=O)c2ccc(C(C)(C)C)cc2)c(Oc2ccccc2OC)c(OCCOc2ncc(Br)cn2)n1 :: 0.026
COc1ccccc1Oc1c(NS(=O)(=O)c2ccc(C(C)(C)C)cc2)nc(SCCO)nc1OCCOc1ncc(Br)cn1 :: 0.15

A: COc1ccccc1Oc1c(NS(=O)(=O)c2ccc(C(C)(C)C)cc2)nc(N2CCC(O)CC2)nc1OCCOc1ncc(Br)cn1
B: Cc1ccc(-c2c(NS(=O)(=O)c3ccc(C(C)(C)C)cc3)nc(-c3cccs3)nc2OCCOc2ncc(Br)cn2)cc1
C: COc1ccccc1Oc1c(NS(=O)(=O)c2ccc(C(C)(C)C)cc2)nc(OCCO)nc1OCCOc1ncc(Br)cn1
D: COc1ccccc1Oc1c(NS(=O)(=O)c2ccc(C(C)(C)C)cc2)nc(NCCO)nc1OCCOc1ncc(Br)cn1
Query: Exam item: list the entries in increasing order of IC50. A complete answer lists every label in the requested sequence.
Reply: A, D, C, B

The values you see were collected from ChEMBL document CHEMBL1135943.
